From: ChEMBL document CHEMBL2176950

biological target: Mitogen-activated protein kinase 14 (Homo sapiens, UniProt Q16539); assay: Ratio of SB203580 IC50 to compound IC50 for inhibition of p38alpha MAPK
Sequence (Q16539 whole entry): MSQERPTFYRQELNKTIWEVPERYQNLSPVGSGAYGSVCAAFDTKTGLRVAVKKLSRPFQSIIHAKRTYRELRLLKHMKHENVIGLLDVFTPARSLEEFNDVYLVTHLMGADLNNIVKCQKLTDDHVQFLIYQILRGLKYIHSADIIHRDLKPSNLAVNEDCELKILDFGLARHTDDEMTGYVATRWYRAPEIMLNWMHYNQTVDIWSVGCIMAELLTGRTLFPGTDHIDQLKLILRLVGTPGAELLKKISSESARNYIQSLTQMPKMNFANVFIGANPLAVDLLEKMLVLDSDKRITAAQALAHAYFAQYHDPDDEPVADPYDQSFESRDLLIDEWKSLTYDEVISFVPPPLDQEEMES
metric.name: Ratio IC50

[[record]]
molecule = "COCn1c(-c2ccccc2)nc(-c2ccc(F)cc2)c1-c1ncnc2[nH]cnc12"
system_under_test = "Mitogen-activated protein kinase 14 (Homo sapiens, UniProt Q16539)"
result_value = 0.01


P: Fc1ccc(-c2nc(-c3ccccc3)[nH]c2-c2ccnc3[nH]ccc23)cc1
Q: Fc1ccc(-c2nc(-c3ccccc3)[nH]c2-c2ccnc3[nH]c(Cc4ccccc4)cc23)cc1
R: C[S+]([O-])c1ccc(-c2nc(-c3ccc(F)cc3)c(-c3ccnc4[nH]c(-c5ccccc5)cc34)[nH]2)cc1 (configuration not stated)
S: Fc1ccc(-c2nc(-c3ccccc3)[nH]c2-c2ncnc3[nH]ccc23)cc1
Could you please sort these 4 entries by Ratio IC50 from high to low? Thanks in advance for listing the labels in the requested order.
R, P, Q, S
(R: 4.75, P: 0.47, Q: 0.07, S: 0.03)

A: Fc1ccc(-c2nc(-c3ccccc3)[nH]c2-c2ccnc3[nH]c(-c4ccccc4)cc23)cc1
B: CSc1ccc(-c2nc(-c3ccc(F)cc3)c(-c3ccnc4[nH]c(-c5ccccc5)cc34)[nH]2)cc1
Return label of the item with the larger Ratio IC50. Candidates: A , B . Kindly give the label for the entry you pick.
A

---

target: Mitogen-activated protein kinase 14 (Homo sapiens); test: Inhibition of p38alpha MAPK
metric.name: IC50 (µM)

[[record]]
compound = "C[S+]([O-])c1ccc(-c2nc(-c3ccnc4[nH]c(-c5ccccc5)cc34)c(-c3ccc(F)cc3)[nH]2)cc1 (stereo not drawn)"
metric_name = "IC50"
result_value = 0.008

[[record]]
compound = "CS(=O)(=O)c1ccc(-c2nc(-c3ccc(F)cc3)c(-c3ccnc4[nH]c(-c5ccccc5)cc34)[nH]2)cc1"
metric_name = "IC50"
result_value = 0.011

[[record]]
compound = "Oc1ccc(-c2nc(-c3ccnc4[nH]c(-c5ccccc5)cc34)c(-c3ccc(F)cc3)[nH]2)cc1"
metric_name = "IC50"
result_value = 0.003

[[record]]
compound = "COCn1c(-c2ccccc2)nc(-c2ccc(F)cc2)c1-c1ccnc2[nH]ccc12"
metric_name = "IC50"
result_value = 0.451

[[record]]
compound = "Fc1ccc(-c2[nH]c(-c3ccccc3)nc2-c2ccnc3[nH]c4ccccc4c23)cc1"
metric_name = "IC50"
result_value = 0.153


1: Fc1ccc(-c2nc(-c3ccccc3)[nH]c2-c2ccnc3[nH]c(Cc4ccccc4)cc23)cc1
2: Fc1ccc(-c2[nH]c(-c3ccccc3)nc2-c2ccnc3[nH]c(C4CCCCC4)cc23)cc1
Which record would sort first by descending IC50, 1 or 2 ? Lab log: write the label of the selected item as the result.
1
(1: 0.345 µM, 2: 0.015 µM)

---

molecular target: Mitogen-activated protein kinase 14 (Homo sapiens); test: Inhibition of p38alpha MAPK
metric.name: IC50 (nM)

I: COc1ccc(-c2nc(-c3ccnc4[nH]c(-c5ccccc5)cc34)c(-c3ccc(F)cc3)[nH]2)cc1
II: COc1cc(-c2nc(-c3ccnc4[nH]c(-c5ccccc5)cc34)c(-c3ccc(F)cc3)[nH]2)cc(OC)c1OC
III: Fc1ccc(-c2[nH]c(-c3ccccc3)nc2-c2ccnc3[nH]c(-c4ccccc4)cc23)cc1
Hey, can you sort those compounds up there by IC50, smallest first? Your answer should be the labels, listed in the requested order.
III, I, II
(III: 16 nM, I: 70 nM, II: 290 nM)
